Tested on: 922993-354-T-J3-PDC complex spheroids, viability, % test/control;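 further: spheroids exposed to the agents for 7 days before readout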
measurement.notes: Anticancer human tumor 922993-354-T-J3-PDC patient-derived endometrial carcinoma cell line growth inhibition [CLK]
condition.description: second compound 1 µM; first compound 1 µM; hits give low values
The entries below are paired with their reported viability, T/C.

A selection of reference data follows.
compound: COc1ccc([C@@H](O)c2cc(-c3ncnc4cc(N5CCOCC5)ccc34)c(F)cc2Cl)nn1 + CNC(=O)c1ccc(Nc2nc(OC3CCCC3)c3c(-c4ccc5nc(C)oc5c4)c[nH]c3n2)c(OC)c1
tested.target: 922993-354-T-J3-PDC complex spheroids, viability, % test/control;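 further: spheroids exposed to the agents for 7 days before readout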
viability, T/C: 40.9%
//
compound: CCN1CCN(Cc2ccc(Nc3ncc(F)c(-c4cc(F)c5nc(C)n(C(C)C)c5c4)n3)nc2)CC1 + CNC(=O)c1ccc(Nc2nc(OC3CCCC3)c3c(-c4ccc5nc(C)oc5c4)c[nH]c3n2)c(OC)c1
tested.target: 922993-354-T-J3-PDC complex spheroids, viability, % test/control;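 further: spheroids exposed to the agents for 7 days before readout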
viability, T/C: 38.1%

viability, T/C lookup needed for CCc1c2c(nc3ccc(O)cc13)-c1cc3c(c(=O)n1C2)COC(=O)[C@]3(O)CC + CNC(=O)c1ccc(Nc2nc(OC3CCCC3)c3c(-c4ccc5nc(C)oc5c4)c[nH]c3n2)c(OC)c1 , thanks.
18.5%
